Quick record of log10 of Ki values for Prothrombin (Homo sapiens, UniProt P00734).
Form field - Quantity: Ki; Unit: nM; Scale: log10

QUERY: Recorded log10 of Ki for `Cc1ccc(NS(=O)(=O)c2ccc3c(c2)CCO3)c(=O)n1CC(=O)NCc1ccc2[nH]ncc2c1` , please?
RESULT: 0.59

QUERY: How about `Cc1cnc(NCC2(c3ccccc3)CCC2)c(=O)n1CC(=O)NCc1ccc2[nH]nc(O)c2c1` ?
RESULT: 1.00

QUERY: Same question for `Cc1ccc(NS(=O)(=O)Cc2ccc(Br)cc2)c(=O)n1CC(=O)NCc1ccc2c(N)noc2c1` please.
RESULT: 1.35

QUERY: Continue with `Cc1cnc(NCCc2ccccc2)c(=O)n1CC(=O)NCc1ccc2[nH]nc(O)c2c1`
RESULT: 1.52

QUERY: Next entry: `Cc1cnc(NCC2(c3ccc(F)cc3)CC2)c(=O)n1CC(=O)NCc1ccc2[nH]nc(N)c2c1`
RESULT: 1.19

QUERY: Try the molecule `Cc1ccc(NS(=O)(=O)Cc2ccccc2)c(=O)n1CC(=O)NCc1ccc2c(N)noc2c1`
RESULT: 1.87

QUERY: And the next one, `COc1cccc(CCNc2ncc(C)n(CC(=O)NCc3ccc4[nH]ncc4c3)c2=O)c1` ?
RESULT: 1.02

QUERY: Okay, and `Cc1ccc(NS(=O)(=O)Cc2ccccc2)c(=O)n1CC(=O)NCc1ccc2c(N)[nH]nc2n1` ?
RESULT: 3.20

QUERY: Another molecule to look at: `Cc1cnc(NCC2(c3ccccn3)CC2)c(=O)n1CC(=O)NCc1ccc2c(N)noc2c1`
RESULT: 1.41

QUERY: Note, next up: `Cc1nc(N)ccc1CNC(=O)Cn1c(C)cnc(NCCc2ccccc2)c1=O`
RESULT: 0.00

QUERY: Try `Cc1cnc(NCCc2ccc3c(c2)CCC3)c(=O)n1CC(=O)NCc1ccc2[nH]ccc2c1` next.
RESULT: 1.47

QUERY: Try the molecule `Cc1cnc(NCCc2ccc3c(c2)CCC3)c(=O)n1CC(=O)NCc1ccc2c(ccn2N)c1`
RESULT: 4.09

QUERY: And for `Cc1nc(N)ccc1CNC(=O)Cn1c(C)ccc(NS(=O)(=O)Cc2ccccc2)c1=O` ?
RESULT: -0.15

----------
Test method notes: in vivo
Test conditions: dog, plasma, po, 1 mg/kg
Please go through the items and note down their AUC.
Report the figure in ng·h/mL without appending any unit label.

QUERY: Query (molecule): `CCc1cnc(NCCc2ccccc2)c(=O)n1CC(=O)NCc1ccc2[nH]ccc2c1` ; field requested: AUC
RESULT: 523

QUERY: Please give the result for `COc1cccc(S(=O)(=O)Nc2cccn(CC(=O)NCc3ccc4c(N)[nH]nc4c3)c2=O)c1` too.
RESULT: 1040

QUERY: Would you mind doing `Cc1cnc(NCC(F)(F)c2ccccc2)c(=O)n1CC(=O)NCc1ccc2c(N)noc2c1` as well?
RESULT: 6030

QUERY: Same thing, different molecule: `Cc1cnc(NCC2(c3ccccc3)CCC2)c(=O)n1CC(=O)NCc1ccc2c(N)noc2c1`
RESULT: 2150

QUERY: Next record, please: `Cc1ccc(NS(=O)(=O)Cc2ccccc2)c(=O)n1CC(=O)NCc1ccc2c(N)noc2n1`
RESULT: 237

QUERY: Now the molecule `Cc1cnc(NCCc2ccccc2)c(=O)n1CC(=O)NCc1ccc2[nH]nc(N)c2c1`
RESULT: 4850

QUERY: Quick one: `Cc1ccc(NS(=O)(=O)Cc2ccccc2)c(=O)n1CC(=O)NCc1ccc2[nH]ncc2c1`
RESULT: 515

QUERY: Also need `Cc1cnc(NCCc2ccccc2)c(=O)n1CC(=O)NCc1ccc2c(N)noc2c1` , thanks.
RESULT: 3950

QUERY: One more molecule: `Cc1ccc(NS(=O)(=O)Cc2ccc(Br)cc2)c(=O)n1CC(=O)NCc1ccc2c(N)noc2c1`
RESULT: 5470
